- tested system: purified recombinant human MCAD (Homo sapiens, UniProt P11310)
- Sequence (P11310 26-421): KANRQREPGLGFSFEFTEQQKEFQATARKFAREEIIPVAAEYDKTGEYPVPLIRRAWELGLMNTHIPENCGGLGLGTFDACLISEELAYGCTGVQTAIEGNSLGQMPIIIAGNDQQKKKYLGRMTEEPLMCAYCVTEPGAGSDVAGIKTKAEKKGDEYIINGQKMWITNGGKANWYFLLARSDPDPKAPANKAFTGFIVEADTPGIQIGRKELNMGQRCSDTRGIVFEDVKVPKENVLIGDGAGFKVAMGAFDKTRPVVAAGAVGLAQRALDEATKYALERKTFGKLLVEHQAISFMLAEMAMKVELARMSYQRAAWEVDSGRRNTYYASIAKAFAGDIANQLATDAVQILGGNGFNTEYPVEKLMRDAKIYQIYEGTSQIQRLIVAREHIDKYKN
- protocol text: Formation of the charge transfer complex (reductive half-reaction), absorbance at 447/570 nm
- condition parameters: Stockell plot, substrate:subunit ratio 1:1; enzyme 25.2 μM; anaerobic, pH 8.0; read-out: apparent dissociation constant (KD app)
In this section we review reported pKd values for a set of compounds.
Recall that pKd is obtained by taking minus log10 of the concentration measured in molar.

• CC(C)(COP(=O)(O)OP(=O)(O)OC[C@H]1O[C@@H](n2cnc3c(N)ncnc32)[C@H](O)[C@@H]1OP(=O)(O)O)[C@@H](O)C(=O)NCCC(=O)NCCSC(=O)CCCc1ccccc1 = 5.67

// next item, pKd requested
Req: Please look up its pKd: CCCCCCCC(=O)SCCNC(=O)CCNC(=O)[C@H](O)C(C)(C)COP(=O)(O)OP(=O)(O)OC[C@H]1O[C@@H](n2cnc3c(N)ncnc32)[C@H](O)[C@@H]1OP(=O)(O)O
Resp: 6.92

Entry source: patent US9649285B2
